Assay: AUC(0 to 8 hrs) in mouse at 10 mg/kg, po
Format: ADME, organism-based
Parameters: route oral, time 8 hrs, dose 10 mg/kg
Details: in vivo
The entries below come with measured AUC(0-t) at 8 h values attached.

MOLECULE	UNIT_ABBREVIATION	AUC(0-t) at 8 h
O=C(Nc1ccc(Cl)cc1)C(=O)N1CC[C@H](c2ccnc3ccc(F)cc23)[C@@H](O)C1 (stereo in doubt)	µM·h	27.1
O=C(Nc1ccc(Cl)cc1)C(=O)N1CCC(c2ccnc3ccc(F)cc23)CC1	µM·h	19.3
C[C@@H](C(=O)Nc1ccc(Cl)cc1)[C@H]1CC[C@@H](c2ccnc3ccc(F)cc32)CC1	µM·h	9.3

* * *

Readings of inhibition at 10 µM for the listed compounds
Biological target: hERG (KCNH2) (Homo sapiens)
Sequence (Q12809 whole entry): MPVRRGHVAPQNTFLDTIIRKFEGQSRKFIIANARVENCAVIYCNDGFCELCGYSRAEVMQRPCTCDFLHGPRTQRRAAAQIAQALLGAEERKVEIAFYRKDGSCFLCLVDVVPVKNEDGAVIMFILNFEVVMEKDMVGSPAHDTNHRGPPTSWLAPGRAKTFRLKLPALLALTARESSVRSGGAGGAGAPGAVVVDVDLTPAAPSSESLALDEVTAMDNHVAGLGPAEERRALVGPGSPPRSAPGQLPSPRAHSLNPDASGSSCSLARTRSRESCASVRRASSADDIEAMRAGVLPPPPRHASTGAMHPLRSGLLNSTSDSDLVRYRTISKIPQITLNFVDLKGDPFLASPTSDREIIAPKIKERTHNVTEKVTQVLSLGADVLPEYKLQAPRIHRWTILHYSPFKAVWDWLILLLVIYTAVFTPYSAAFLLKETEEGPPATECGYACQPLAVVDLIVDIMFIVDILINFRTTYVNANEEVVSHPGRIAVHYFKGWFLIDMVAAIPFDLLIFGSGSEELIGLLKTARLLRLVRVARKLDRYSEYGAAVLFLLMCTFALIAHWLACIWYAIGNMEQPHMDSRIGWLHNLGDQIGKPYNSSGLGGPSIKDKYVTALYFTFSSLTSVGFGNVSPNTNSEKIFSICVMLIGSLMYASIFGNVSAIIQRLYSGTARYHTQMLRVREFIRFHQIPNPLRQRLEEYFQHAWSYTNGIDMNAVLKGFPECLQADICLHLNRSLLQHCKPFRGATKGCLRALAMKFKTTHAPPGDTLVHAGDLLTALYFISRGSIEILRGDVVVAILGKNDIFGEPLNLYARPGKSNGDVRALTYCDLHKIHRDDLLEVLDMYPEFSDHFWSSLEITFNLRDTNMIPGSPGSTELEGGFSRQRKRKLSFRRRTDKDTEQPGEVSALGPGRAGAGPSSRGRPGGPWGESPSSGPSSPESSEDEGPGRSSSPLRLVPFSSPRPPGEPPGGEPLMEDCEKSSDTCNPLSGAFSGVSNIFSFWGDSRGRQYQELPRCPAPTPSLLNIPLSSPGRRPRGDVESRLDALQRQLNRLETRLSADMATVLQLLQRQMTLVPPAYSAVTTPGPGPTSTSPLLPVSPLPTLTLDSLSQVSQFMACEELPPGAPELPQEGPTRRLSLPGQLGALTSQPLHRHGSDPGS
Test: Inhibition of human ERG assessed as reduction in channel tail current at 10 uM by patch clamp assay relative to control
RECORDED_ENDPOINT: inhibition at 10 µM (%)

COMPOUND	RECORDED_ENDPOINT	QUANTITATIVE_READOUT
O=C(Nc1ccc(Cl)cc1)C(=O)N1CC[C@H](c2ccnc3ccc(F)cc23)[C@@H](O)C1 (stereo in doubt)	inhibition at 10 µM	34
O=C(Nc1ccc(Cl)cc1)C(=O)N1CCC(c2ccnc3ccc(F)cc23)CC1	inhibition at 10 µM	70

* * *

microsomal CLint: recorded values
Test: Metabolic stability in mouse liver microsomes assessed as intrinsic clearance
Format: ADME, Microsome
Conditions: read-out: CLH
RECORDED_ENDPOINT: microsomal CLint (µL/min/mg)

MOLECULE	QUANTITATIVE_READOUT
O=C(Nc1ccc(Cl)cc1)C(=O)N1CCC(c2ccnc3cc(F)ccc23)CC1	55
O=C(Nc1ccc(Cl)cn1)C(=O)N1CCC(c2ccnc(C(F)(F)F)c2Cl)CC1	36
O=C(Nc1ccc(Cl)cc1)C(=O)N1CCC(c2ccnc3ccc(Cl)cc23)CC1	72
O=C(Nc1ccc(Cl)cc1)C(=O)N1CCC(c2ccnc3ccc(F)cc23)C(F)(F)C1 (racemic)	52
O=C(Nc1ccc(Cl)cc1)C(=O)N1CCC2(CC1)COc1cc(C(F)(F)F)ccc12	14
O=C(Nc1ccc(Cl)cc1)C(=O)N1CC[C@@H](c2ccnc3ccc(F)cc23)[C@H](O)C1 (stereo in doubt)	18
O=C(Nc1ccc(Cl)cn1)C(=O)N1CCC2(CC1)COc1cc(C(F)(F)F)ccc12	63
C[C@@H](C(=O)Nc1ccc(Cl)cc1)[C@H]1CC[C@@H](c2ccnc3ccc(F)cc32)CC1	386
O=C(Nc1ccc(Cl)cc1F)C(=O)N1CCC=C(c2ccnc3ccc(F)cc23)CC1	254

* * *

Overview of reported microsomal CLint across a group of molecules:
Experiment: Metabolic stability in mouse liver microsomes assessed as intrinsic clearance
Format: ADME, Microsome
Settings: read-out: CLH
RECORDED_ENDPOINT: microsomal CLint

MOLECULE	RECORDED_ENDPOINT	RESULT
CC1(C)CN(C(=O)C(=O)Nc2ccc(Cl)cc2)CCC1c1ccnc2ccc(F)cc12 (racemic)	microsomal CLint	72.9 µL/min/mg
O=C(Nc1ccc(C(F)(F)F)cc1)C(=O)N1CCC(c2ccnc3ccc(F)cc23)CC1	microsomal CLint	16 µL/min/mg
O=C(Nc1ccc(Cl)cc1)C(=O)N1CC[C@H](c2ccnc3ccc(F)cc23)[C@@H](O)C1 (stereo in doubt)	microsomal CLint	17 µL/min/mg

* * *

Molecular target: UniProt:P14902
Assay: Inhibition of IDO1 in human SKOV3 cells
Assay type: cell-based, SK-OV-3
Below, each entry is listed alongside its reported IC50.

COMPOUND	UNIT_ABBREVIATION	IC50
O=C(Nc1ccc(Cl)cc1F)C(=O)N1CCCC(c2ccnc3ccc(F)cc23)CC1 (racemic)	nM	8
CS(=O)(=O)NCCCNC(=O)/C(=N/O)Nc1ccc(F)c(Br)c1	nM	340
O=C(Nc1ccc(Cl)cn1)C(=O)N1CCC2(CC1)COc1ccccc12	nM	490
N#Cc1ccc(NC(=O)C(=O)N2CCC(c3ccnc4ccc(F)cc34)CC2)cc1	nM	36
O=C(Nc1ccc(Cl)cn1)C(=O)N1CCC(c2cccc(Cl)c2Cl)CC1	nM	245

* * *

pIC50: recorded values
Biological target: Indoleamine 2,3-dioxygenase 1 (Homo sapiens, UniProt P14902)
Sequence (P14902 whole entry): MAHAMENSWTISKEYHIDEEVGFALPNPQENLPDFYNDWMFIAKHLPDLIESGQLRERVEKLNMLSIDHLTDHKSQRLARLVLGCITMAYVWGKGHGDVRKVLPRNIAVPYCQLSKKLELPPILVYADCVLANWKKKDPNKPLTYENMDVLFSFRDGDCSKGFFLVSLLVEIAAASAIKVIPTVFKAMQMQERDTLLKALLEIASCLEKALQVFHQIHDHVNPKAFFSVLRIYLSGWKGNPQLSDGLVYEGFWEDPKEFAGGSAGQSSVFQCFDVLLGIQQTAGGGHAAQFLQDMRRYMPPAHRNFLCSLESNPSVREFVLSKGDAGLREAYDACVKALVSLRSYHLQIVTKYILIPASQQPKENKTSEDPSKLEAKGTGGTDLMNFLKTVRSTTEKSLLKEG
Assay: Inhibition of IDO1 (unknown origin) by enzymatic assay
pIC50: −log10 of the molar value.
RECORDED_ENDPOINT: pIC50

CPD_SMILES	SYSTEM_NAME	RESULT
O=C(Nc1ccc(F)c(Cl)c1)C(=O)N1CCC(c2ccccc2)CC1	Indoleamine 2,3-dioxygenase 1 (Homo sapiens, UniProt P14902)	< 4.22
O=C(/C(=N/O)Nc1ccc(F)c(Cl)c1)N1CCC(c2ccccc2)CC1	Indoleamine 2,3-dioxygenase 1 (Homo sapiens, UniProt P14902)	< 4.22
O=C(Nc1ccc(Cl)cc1)C(=O)N1CCC(c2ccccc2)CC1	Indoleamine 2,3-dioxygenase 1 (Homo sapiens, UniProt P14902)	< 4.22

* * *

Experiment: Metabolic stability in human liver microsomes assessed as intrinsic clearance
Format: ADME, Microsome
Conditions: read-out: CLH
Each entry falls in a class defined on microsomal CLint; the bands are LOW: < 10 µL/min/mg; MID: ≥ 10 µL/min/mg and < 30 µL/min/mg; HIGH: ≥ 30 µL/min/mg

COMPOUND	CLASSIFICATION
O=C(Nc1ccc(Cl)cc1)C(=O)N1CCC2(CC1)COc1cc(C(F)F)ccc12	MID
O=C(Nc1ccc(Cl)cc1)C(=O)N1CCC(c2ccnc3ccc(Cl)cc23)CC1	MID
CC1(C)CN(C(=O)C(=O)Nc2ccc(Cl)cc2)CCC1c1ccnc2ccc(F)cc12 (racemic)	MID
O=C(Nc1ccc(Cl)cc1)C(=O)N1CCC2(CC1)COc1cc(C(F)(F)F)ccc12	LOW
O=C(Nc1ccc(Cl)cn1)C(=O)N1CCC(c2ccnc3ccc(F)cc23)CC1	MID
O=C(Nc1ccc(Cl)cc1F)C(=O)N1CCC=C(c2ccnc3ccc(F)cc23)CC1	HIGH
O=C(Nc1ccc(Cl)cn1)C(=O)N1CCC(c2cccc(Cl)c2Cl)CC1	HIGH
O=C(Nc1ccc(Cl)cc1)C(=O)N1CCC(c2ccnc3cc(F)ccc23)CC1	MID
O=C(Nc1ccc(Cl)cc1)C(=O)N1CCC(c2ccnc3ccc(F)cc23)C(F)(F)C1 (racemic)	MID
O=C(Nc1ccc(C(F)(F)F)cc1)C(=O)N1CCC(c2ccnc3ccc(F)cc23)CC1	LOW
O=C(Nc1ccc(Cl)cc1)C(=O)N1CC[C@H](c2ccnc3ccc(F)cc23)[C@@H](O)C1 (stereo in doubt)	LOW
O=C(Nc1ccc(Cl)cc1F)C(=O)N1CCCC(c2ccnc3ccc(F)cc23)CC1 (racemic)	HIGH
C[C@@H](C(=O)Nc1ccc(Cl)cc1)[C@H]1CC[C@@H](c2ccnc3ccc(F)cc32)CC1	MID
